meta.source: patent US20090118135A1

- experimental-system: GST-Bcl-B (Homo sapiens)
- Sequence (Q9HD36 1-182 limits assumed): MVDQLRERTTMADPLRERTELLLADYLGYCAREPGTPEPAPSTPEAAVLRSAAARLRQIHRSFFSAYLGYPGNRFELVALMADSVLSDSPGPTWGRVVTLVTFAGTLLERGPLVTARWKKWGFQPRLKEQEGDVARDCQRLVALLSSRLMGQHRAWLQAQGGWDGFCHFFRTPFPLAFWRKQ
- protocol-details: Bcl-B/FITC-TR3-r8 fluorescence polarization competition (displacement) assay, HTS and dose-response
- test-settings: read-out: Result Value (Result Type % Inhibition), BCL-b/TR3
Hi there, I'd appreciate the recorded inhibition at 0.02 µM for every entry that follows.
Hi! Could you send only the number? It should be in %, unit omitted.

Specify inhibition at 0.02 µM for NC(=O)OCC1=C(COC(N)=O)C(=O)c2c(O)ccc(O)c2C1=O [Compound 224124] , system GST-Bcl-B (Homo sapiens).
145

Specify inhibition at 0.02 µM for CC1C2C=CC1C(c1c3ccc(=O)c(O)c-3oc3c(O)c(O)ccc13)C2C(=O)O (stereo not drawn) [Compound 119913] , system GST-Bcl-B (Homo sapiens).
131

Specify inhibition at 0.02 µM for O=S(=O)(O)c1ccc2cc(/N=N/c3cc(S(=O)(=O)O)c4cccnc4c3O)ccc2c1 [Compound 87677] , system GST-Bcl-B (Homo sapiens).
66.1

Specify inhibition at 0.02 µM for O=S(=O)(O)c1cc(/N=N/c2cc(S(=O)(=O)O)c3cccnc3c2O)ccc1/C=C/c1ccc(/N=N/c2cc(S(=O)(=O)O)c3cccnc3c2O)cc1S(=O)(=O)O [Compound 635352] , system GST-Bcl-B (Homo sapiens).
94

Specify inhibition at 0.02 µM for Cc1nn(-c2ccc(S(=O)(=O)O)cc2)c(O)c1/N=N/c1ccc(-c2ccc(/N=N/c3ccc4c(S(=O)(=O)O)cc(S(=O)(=O)O)c(N)c4c3O)c(O)c2)cc1O [Compound 306711] , system GST-Bcl-B (Homo sapiens).
154

Specify inhibition at 0.02 µM for Nc1ccc(/N=N/c2ccc(-c3ccc(O)cc3)cc2)c2ccc(S(=O)(=O)O)cc12 [Compound 65528] , system GST-Bcl-B (Homo sapiens).
71.6

Specify inhibition at 0.02 µM for COC(=O)c1ccc(O)c2nc3c(C=O)c(O)cc(O)c3nc12 [Compound 106995] , system GST-Bcl-B (Homo sapiens).
98.9

Specify inhibition at 0.02 µM for O=C1OC(c2ccccc2)=N/C1=C\c1ccc(N(CCCl)CCCl)cc1 [Compound 104117] , system GST-Bcl-B (Homo sapiens).
62.8

Specify inhibition at 0.02 µM for CCOc1ccc2nc3cc(/N=N/c4ccc(N)nc4N)ccc3c(N)c2c1.Cl [Compound 354961] , system GST-Bcl-B (Homo sapiens).
150

Specify inhibition at 0.02 µM for COc1ccc2c(NCCCCCCNc3c4ccccc4nc4cc(OC)ccc34)c3ccccc3nc2c1 [Compound 260610] , system GST-Bcl-B (Homo sapiens).
53.3

Specify inhibition at 0.02 µM for O=S(=O)(O)c1cc(/N=N/c2cc(S(=O)(=O)O)c3ccccc3c2O)ccc1/C=C/c1ccc(/N=N/c2cc(S(=O)(=O)O)c3ccccc3c2O)cc1S(=O)(=O)O [Compound 34931] , system GST-Bcl-B (Homo sapiens).
80.3

Specify inhibition at 0.02 µM for O=C1C=C(NCCc2cc(Br)c(O)c(Br)c2)C(=O)c2ncccc21 [Compound 668394] , system GST-Bcl-B (Homo sapiens).
81.8

Specify inhibition at 0.02 µM for Oc1ccc(Cc2nccc3cc(O)c(O)cc23)cc1O [Compound 99799] , system GST-Bcl-B (Homo sapiens).
77.4

Specify inhibition at 0.02 µM for COc1ccc2nc3cc(Cl)ccc3c(Nc3ccc(O)c(CN4CCN(C)CC4)c3)c2c1.Cl [Compound 130813] , system GST-Bcl-B (Homo sapiens).
133

Specify inhibition at 0.02 µM for O=C(O)C1CCCCC1c1c2ccc(=O)c(O)c-2oc2c(O)c(O)ccc12 (stereo not drawn) [Compound 119910] , system GST-Bcl-B (Homo sapiens).
119
